target: T1, iCAL36TRL; assay: fluorescence polarization competition
T1 chain: ANSRWPTTRL
attribute.measured: pKi
Please express pKi as -log10 of the molar concentration.

Prompt: Which pKi reading was recorded for the binder N1P2 PDZ2 (protein) RPRLCTMKKGPSGYGFNLHSDKSKPGQFIRSVDPDSPAEASGLRAQDRIVEVNGVCMEGKQHGDVVSAIRAGGDETKLLVVDRETDE ?
Response: 3.96

Prompt: What value of measured pKi is listed for N2P1 PDZ1 (protein) RPRLCRLVRGEQGYGFHLHGEKGRRGQFIRRVEPGSPAEAAALRAGDRLVEVNGVNVEGETHHQVVQRIKAVEGQTRLLVVDQETD ?
Response: 5.06

Prompt: Find the recorded pKi belonging to N2P2 PDZ2 (protein) LRPRLCHLRKGPQGYGFNLHSDKSRPGQYIRSVDPGSPAARSGLRAQDRLIEVNGQNVEGLRHAEVVASIKAREDEARLLVVDPETD and report it.
Response: 4.78

Prompt: // lookup pKi for N1P1 PDZ1 (protein) LPRLCCLEKGPNGYGFHLHGEKGKLGQYIRLVEPGSPAEKAGLLAGDRLVEVNGENVEKETHQQVVSRIRAALNAVRLLVVDPETDE
Response: 5.10
